Tested on: SNB-19 CNS
TEST_DESCRIPTION: NCI-60 one-dose screen, 48 h (100 = growth as untreated, 0 = no growth, -100 = all killed)
DETAILS: 10 µM unless noted
Procedure: Growth inhibition of the SNB-19 human tumor cell line is measured as a screen for anti-cancer activity. Cells are grown in 96 well plates and exposed to the test compound for 48 hours. Compounds are tested at a single concentration, which is 10^-5 M for most compounds. The reported endpoint is percent growth (GI% or GIPRCNT), where numbers from 0 - 100% represent growth inhibition, and numbers from -100% - 0 represent cell death. For example, a value of 40 represents 60% growth inhibition. […]
The panel holds about 83,000 compounds, 20% with a hit somewhere; the sample as a whole holds those more often.
VALUE_TYPE: growth (%)
Report only the number, with the unit % understood.

Worked examples, 3 compounds total:
[[record]]
compound = "Cc1ccc(S(=O)(=O)c2nc(S(=O)(=O)c3ccc(C)cc3)c(N3CCN(C)CC3)s2)cc1"
target_or_system = "SNB-19 CNS"
measurement_unit = "%"
readout_value = 85.7

[[record]]
compound = "C=C1CC[C@@H]2[C@]3(C)COC(c4cn[nH]c4-c4ccc(F)cc4)O[C@@H]3CC[C@@]2(C)[C@@H]1C/C=C1/C(=O)OCC1O (stereo partly specified)"
target_or_system = "SNB-19 CNS"
measurement_unit = "%"
readout_value = 21.6

[[record]]
compound = "C#CCOc1cc(N(CC)CC)ccc1C(C(=O)NC(C)(C)C)N(C(=O)C1CCc2cc(F)ccc2O1)c1ccc(Br)cc1 (stereo unspecified)"
target_or_system = "SNB-19 CNS"
measurement_unit = "%"
readout_value = 91.5


Enquiry: Sample COc1ccc2c(c1)c(-c1cc(N)n3nc(-c4cn(C)c5ccccc45)cc3n1)cn2C — what was its growth?
Return: 4.07

Enquiry: Sample Cc1ccc(/C=C/c2n(Cc3ccc4ccccc4c3)c3ccccc3[n+]2Cc2ccc3ccccc3c2)cc1 — what was its growth?
Return: -58.5

Enquiry: Sample COc1cc2c(c(OC)c1OC)C(=O)CC(c1cccc(NC(=O)c3cccc([N+](=O)[O-])c3)c1)O2 (stereo unspecified) — what was its growth?
Return: 52.6

Enquiry: Sample N#Cc1c(-c2cccc(Cl)c2Cl)cc(-c2ccc3ccccc3c2)[nH]c1=O — what was its growth?
Return: 39.2

Enquiry: Sample CCN1CCN(Cc2ccc(C(=O)Nc3cccc(C#Cc4cccc5[nH]nc(N)c45)c3)cc2C(F)(F)F)CC1 — what was its growth?
Return: -88.7

Enquiry: Sample O=C(NN1C(=O)/C(=C/C=C/c2ccc([N+](=O)[O-])o2)SC1=S)c1ccc(Cl)cc1 — what was its growth?
Return: -100

Enquiry: Sample CC12CC[C@@H]3[C@]4(C)COC(c5cn[nH]c5-c5cccc(Cl)c5)O[C@@H]4CC[C@@]3(C)[C@@H]1CC(C1=CCOC1=O)O2 (stereo partly specified) — what was its growth?
Return: 56.8

Enquiry: Sample Cc1ccc(-c2nc(C#N)c(S(=O)(=O)N3CCN(S(=O)(=O)c4ccc(Cl)cc4)CC3)o2)cc1 — what was its growth?
Return: 68.9

Enquiry: Sample CC1(C)CC[C@]2(C(=O)O)CC[C@]3(C)C(=CCC4[C@@]5(C)C[C@@H](O)[C@@H]6OC(c7ccccc7F)OC[C@@]6(C)C5CC[C@]43C)C2C1 (stereo partly specified) — what was its growth?
Return: 20.3

Enquiry: Sample COc1ccc(/C=N/NC(=O)Cn2nc(Cc3ccc(OC)cc3)c3onc(C)c3c2=O)cc1 — what was its growth?
Return: 56.3

Enquiry: Sample O=C1C(=Nc2ccc(F)c(Cl)c2)c2cccc3cccc1c23 — what was its growth?
Return: 71.2

Enquiry: Sample CC1(C)CC[C@]2(C(=O)O)CC[C@]3(C)C(=CCC4[C@@]5(C)C[C@@H](O)[C@@H]6OC(c7ccccc7Br)OC[C@@]6(C)C5CC[C@]43C)C2C1 (stereo partly specified) — what was its growth?
Return: 27.7

Enquiry: Sample COc1cc(/C=C2\C(=N)N=C(SCc3nc4ccccc4[nH]3)NC2=O)ccc1O — what was its growth?
Return: 104
